- Protocol notes: yeast display, Sf9 membrane polyspecificity reagent, FACS + sequencing; frameworks hold sequencing errors
Readout name: polyreactivity (PSR sort gate)

Entry sequence | polyreactivity (PSR sort gate)
QVQLVESGGGLVQAGGSLRLSCAASGSTFISNTIGWYRQAPGKERELVAAISSGGDTSYADSVKGRFTISRDNAKNTVYLQMNILKPEDTAVYYCNVDTSATSYSSEYDYWGQGTQVTVSS | low polyreactivity
QVQLVESGGGLVQAGGSLRLSCAASGRTFAINAMGGYRQAPGKERELVATIDRSGGSTYYADSVKGRFTISRDNAKNTVYLQMNRLKPEDTAVYYCAADYPVRSYDYWGQGTQVTVSS | low polyreactivity
QVQLVESGGGLVQAGGSLRLSCAASGRIFNFYAMGWYRQAPGKEWELVAAITNGGGTKYADSVKGRFTISRDNAKNTVYLQMNSLKPEDTAVYYCAARYYRRQRGQTSHSRFGYWGQGTQVTVSS | high polyreactivity
QVQLVESGGGLVQAGGSLRLSCAASGIILHYYAMGWYRQAPGKERELVAAISARGGRTYYADSVKGRFTISRDNAKNTVYLQMNSLKPEDTAVYYCARYLRRSSPSPGYGYWGQGTQVTVSS | high polyreactivity

// moving on: another record for polyreactivity (PSR sort gate)
For record QVQHVESGGGLVQAGGSLRLSCAASGSIFNYYAMGWYRQAPGKERELVAAISKTGGSTYYADSVKGRFTISRDNAKNTVYLQMNSLKPEDTAVYYCNAVYASVSPTPYGYWGQGTQVTVSS the listed polyreactivity (PSR sort gate) is high polyreactivity

---

- Protocol notes: yeast display, Sf9 membrane polyspecificity reagent, FACS + sequencing; frameworks hold sequencing errors
Readout name: polyreactivity (PSR sort gate)

Worked examples follow.
Entry sequence | polyreactivity (PSR sort gate)
QVQLVESGGGLVQAGGSLRLICAASGSTLYRYAMGWYRPAPGKERELVAAISSAGSTHYADSVKGRFTISRDNAKNTVYLQMNSLKPEDTAVYYCAAKRYLKYGYWGQGTQVTVSS | high polyreactivity
QVQLVESGGGLVQAGGSLRLSCAASGGTLAYYAMGWYRQAPGKERELVAAITRSGGSTYYADSVKGRFTISRDNAKNTVYLQMNSLKPEDTAVYYCAALLAYCKNRWHIEYDYWGQGTQVTVSS | low polyreactivity
QVQLVESGGGLVQAGGSLRLSCAASGRTFAIYAMGWYRQAPGIEREFVAAISWSGGDTYYADSVKGRFTISRDNAKNTVYLQMNSLKPEDTAVYYCAARDNDYEGRDLQYELDYWGQGTHVTVSS | low polyreactivity
QVQLVESGGGLVQAGGSLRLSSAASGSIFSSYAMGWYRQAPGKERELVAAITKRADRTNYADSVKGRFTISRDNAKNTVYLQMNSLKPEDTAVYYCNAEGQNDHPSNGYISYKYDYWGQGTQVTVSS | low polyreactivity
QDQLVESGGGLVQAGGSLRLSCAASGSITAPYAMGWYRQAPGKERELVAAISYSGGSTNYADSVKGRFTISRDNAKNTVYLQMNSRKPEATAVYYCAARGYSGYRTSPLARYDYWGKGTQVTVSS | high polyreactivity

Here are 5 sequences. What values of polyreactivity (PSR sort gate) were reported for them?
1. QVQLVESGGGLVQAGCSLRLTCAASGRTFITNAKGWYRQAPVKERELVAAISSGTGGRTNYADSVKGRFTISRDNAKNTVYLQMNSRKPEDTAVYYCAARSTKYYPYGYWGQGTQVTLSS
2. QVQLVESGGGLVQAGGSLRLSCAASGFTFSNYAMGWYRQAPGKEREFVAAISGTGGSTYYADSVKGRFTISRDNAKNTVYLQMNSLKPEDTAVYYCNARERVSRQYTFDYWGQGTQVTVSS
3. QVQLVESGGGLVQAGGSLRLSCAASGRTFGWYAMGWYRQAPGKERELVAAITYPTGSTYYADSVKGRFTISRDNAKNTVYLQMNSLKPEDTAVYYCAAQGYISAGYKYDYWGQGTQVTVSS
4. QVQLVESGGGLVQAGGSLRLSCAASGRIFPDYDMGWYRQAPGKERELVASISTRGGSTYADSVKGRFTISRDNAKNTVYLQMNSLKPEDTAVYYCATDGWKQSAYDYWGQGTQVTVSS
5. QVQLVESGGGLVQAGGSLRLSCAASGSTFQNYAMGWYIQAPGKERELVAAIRGNGGITYYADSVKGRFTISRDNAKNTVYLQMNSLKPEDTAVYYFAVRSAWVYGIRRDYWGQGTQVTVSS

Response:
1. high polyreactivity
2. high polyreactivity
3. low polyreactivity
4. low polyreactivity
5. high polyreactivity

For record QVQRVESGGGLVQEAGSLRLSCAASGSILGINVMGWYRHDHGKQRDLVAAISRSGGTTYYADSVKGRFTISRDNGKNTVYLQMNSLKPEDTAVYSCAVYNRPYKEYGYNYCGQGTQVTVSS the listed polyreactivity (PSR sort gate) is high polyreactivity
